Peptide text beside a SMILES is read from it.
Observed pIC50 for hDPP-IV (Homo sapiens, UniProt P27487), reported per entry below.
API: returns pIC50 as number; meaning -log10 of concentration in mol/L.

State the recorded pIC50 for this entry: N[C@@H](Cc1c[nH]c2ccccc12)C(=O)N1CCC[C@H]1C(=O)N[C@@H](CC(=O)O)C(=O)O [WPD] (H-Trp-Pro-Asp-OH)
3.32

State the recorded pIC50 for this entry: CSCC[C@H](NC(=O)[C@@H]1CCCN1C(=O)[C@@H](N)Cc1c[nH]c2ccccc12)C(=O)O [WPM] (H-Trp-Pro-Met-OH)
3.66

State the recorded pIC50 for this entry: CC(C)[C@H](NC(=O)[C@@H](N)Cc1c[nH]c2ccccc12)C(=O)N1CCC[C@H]1C(=O)O [WVP] (H-Trp-Val-Pro-OH)
3.40
